system: VDR homodimer (NR concentration 270 nM); test: PBM binding z-score (relative to random genomic background probes); higher = stronger binding; sequences stand for … in GC…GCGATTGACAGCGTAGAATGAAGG
Values of PBM binding z-score greater than or equal to 1 map to 1 (yes); values below map to 0 (no).

Does PBM binding z-score meet or surpass 1 for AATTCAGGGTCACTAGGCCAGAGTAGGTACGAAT ?
1 (yes)

Is the recorded value of PBM binding z-score equal to or greater than 1 for this sequence? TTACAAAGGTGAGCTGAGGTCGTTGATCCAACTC
1 (yes)

Confirm if PBM binding z-score reported for the sequence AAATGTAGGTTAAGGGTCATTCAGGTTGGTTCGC is 1 or above.
1 (yes)

Please check the record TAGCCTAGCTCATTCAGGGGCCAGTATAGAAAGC and state if its PBM binding z-score is at or above 1.
0 (no)

Threshold query (PBM binding z-score >= 1) on AGCGAAAGGTCGAAGGTGAGTATACCCACCCGAA
0 (no)

Hi, just wondering whether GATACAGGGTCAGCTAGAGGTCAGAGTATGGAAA shows PBM binding z-score of 1 or higher.
1 (yes)

Answer whether PBM binding z-score of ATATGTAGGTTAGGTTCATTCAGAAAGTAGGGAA is greater than or equal to 1.
1 (yes)

Answer whether PBM binding z-score of TCTCGGAGGTCACGAAGGTCAGAGCTTTCCAGAG is greater than or equal to 1.
1 (yes)

Say whether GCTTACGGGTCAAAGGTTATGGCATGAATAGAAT shows PBM binding z-score of 1 or more.
1 (yes)

I'd appreciate it if you could say whether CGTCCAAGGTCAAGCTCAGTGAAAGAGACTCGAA has PBM binding z-score at least equal to 1.
1 (yes)

Decide: PBM binding z-score of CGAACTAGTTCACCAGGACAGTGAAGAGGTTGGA >= 1?
1 (yes)

Entry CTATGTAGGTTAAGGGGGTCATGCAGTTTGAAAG : is its PBM binding z-score no less than 1?
1 (yes)

Does the reported PBM binding z-score for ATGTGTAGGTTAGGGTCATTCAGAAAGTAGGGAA fall at or above the 1 mark?
1 (yes)

Quick check, PBM binding z-score >= 1? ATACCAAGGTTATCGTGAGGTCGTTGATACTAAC
1 (yes)

PBM binding z-score >= 1 for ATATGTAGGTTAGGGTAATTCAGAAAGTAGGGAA ?
1 (yes)

Kindly determine if PBM binding z-score recorded for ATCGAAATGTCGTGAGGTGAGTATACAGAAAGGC is above or exactly 1.
0 (no)

Given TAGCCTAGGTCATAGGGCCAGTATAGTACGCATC , state whether its PBM binding z-score is at least 1.
0 (no)

Evaluate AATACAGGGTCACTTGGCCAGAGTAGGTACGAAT : PBM binding z-score at minimum 1?
1 (yes)

Does the reported PBM binding z-score for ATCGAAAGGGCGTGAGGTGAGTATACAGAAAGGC fall at or above the 1 mark?
0 (no)

Record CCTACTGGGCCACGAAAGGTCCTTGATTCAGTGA ; criterion: PBM binding z-score no lower than 1. Met?
0 (no)

Hi, just wondering whether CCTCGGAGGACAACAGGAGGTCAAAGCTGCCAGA shows PBM binding z-score of 1 or higher.
1 (yes)

Decide: is the reported value of PBM binding z-score for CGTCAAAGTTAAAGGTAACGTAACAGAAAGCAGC equal to or greater than 1?
0 (no)

Given TAGCCTAGGTCAGATCGGGCCAGTCTACGCTATA , state whether its PBM binding z-score is at least 1.
0 (no)

Say whether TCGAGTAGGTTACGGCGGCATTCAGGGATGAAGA shows PBM binding z-score of 1 or more.
0 (no)

Say whether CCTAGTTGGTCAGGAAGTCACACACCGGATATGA shows PBM binding z-score of 1 or more.
0 (no)
